tested on: SF-268 CNS; test: NCI tumour cell line growth inhibition, 48 h
Readout: TGI (µM)
Respond numerically; units are µM and should not be typed.

Input line: Request the reported TGI associated with "CCOC(=O)/C=C(\C(=O)OCC)n1cc(Cl)c(=O)n(CC(=O)OCC)c1=O"
Output line: 32.7

Input line: Same read-out for O=CN1N=C(c2cccc(Nc3ccnc4cc(Cl)ccc34)c2)CC1c1ccccc1 (stereo not drawn) ?
Output line: 41.2

Input line: For "Clc1ccc2nc(CI)c(CI)nc2c1" then?
Output line: 14.3

Input line: Please do the same for COc1cc2cc(C(=O)N3CC(CCl)c4ccc(N(C)C)cc43)[nH]c2c(OC)c1OC (stereo not drawn) as well.
Output line: 3.81

Input line: # iterate: "COC1=C(Cl)C(=O)c2c(O)ccc(O)c2C1=O"
Output line: 6.25

Input line: Same thing, different compound: "C=CCOC(OCC=C)/C(Br)=C/C"
Output line: 75.2

Input line: Likewise for "ClCc1ccccc1Cn1cnc2c(Cl)ncnc21" ?
Output line: 10.9

Input line: Request: "O=c1oc2cc(OC/C(=N/O)c3ccc(F)cc3)ccc2c2ccccc12"
Output line: 42.3

Input line: Also CC1SC2(CCCCC2)N(NC(=O)CSc2nc3ccc(Cl)cc3c(=O)n2-c2ccccc2)C1=O (stereo not drawn) , if possible.
Output line: 54.8

* * *

tested on: COLO 205 colon; assay: NCI tumour cell line growth inhibition, 48 h; in the data active = GI50 below about 0.43 µM; inactive = the rest
Please state which outcome applies, choosing from true (active), false (inactive)

Input line: Which outcome did this test record for the molecule "COC(=O)c1c2c(c(C)[n+]([O-])c1C)C(=O)C=C(NCc1cccc(Cl)c1)C2=O" ?
Output line: true

Input line: Again, but for "NC(N)=NC(N)=NCCCc1ccco1"
Output line: false

Input line: // repeat for "O=c1oc2cc(OC/C(=N/O)c3ccc(F)cc3)ccc2c2ccccc12" and report
Output line: false

Input line: Next molecule up: CN(C)CCCC1(c2ccc(F)cc2)OCc2cc(-c3cc4ccccc4s3)ccc21 (configuration not stated)
Output line: false

Input line: Param item: "O=C(c1ccco1)c1c(C(F)(F)F)n([O-])c2cc(C(F)(F)F)ccc2[n+]1=O"
Output line: false

Input line: Would you kindly repeat that for "Cn1c(-c2ccccc2)c(/C=C/C2=[N+](C)c3ccccc3C2(C)C)c2ccccc21" ?
Output line: false

Input line: Similarly, "Cc1ccc2c(c1)C(=O)c1c-2c(OCCCN(C)C)nc2ccccc12" ?
Output line: false

* * *

tested on: SK-OV-3 ovarian; experiment: NCI tumour cell line growth inhibition, 48 h
Can you tell me TGI for the items I'm about to list?

Input line: Reported TGI for CN1Cc2cc(O)c(O)cc2C(O)C1 (stereo unspecified) : what is it?
Output line: > 100 µM

Input line: Can you check "Cc1cc2n[n+]3[n-]cc(-c4ccccc4)n3c2cc1[N+](=O)[O-]" next?
Output line: > 100 µM

Input line: What about this compound? "CCCCCCCCCCCCCC[n+]1ccc(C(N)=O)cc1"
Output line: 10.9 µM

Input line: Then what about the compound "O=C(c1ccccc1)c1c(C(F)(F)F)n([O-])c2cc(C(F)(F)F)ccc2[n+]1=O" ?
Output line: 3.21 µM

Input line: Ok, now "COc1ccc(NC(=O)c2sc3nc(C)c(C(=O)/C=C/c4cccc(OC)c4)cc3c2N)cc1"
Output line: 46 µM

Input line: Next up: CCCCc1ccc(Nc2nc(Cl)c3ccn(C4CC(Oc5ccc(C)cc5)C(COc5ccc(C)cc5)O4)c3n2)cc1 (stereo unspecified)
Output line: > 46.4 µM

Input line: Next: "COC(=O)C1=C(C(=O)OC)C(N(C)C)C(C(=O)OC)=C(C(=O)OC)S1"
Output line: > 100 µM

Input line: Also "Nc1nc2cc(CC[C@H]3C[C@@H](n4ccc5c(N)ncnc54)[C@H](O)[C@@H]3O)ccc2cc1Br" , if possible.
Output line: 39.2 µM

Input line: And for CC([C@H]1CC=C2C3CCC4=C[C@@H](N(C)C)CC[C@]4(C)C3CC[C@@]21C)N(C)C (stereo partly specified) ?
Output line: 11.6 µM

Input line: Similarly, O=C(CN1CCCCC1)Nc1ccc2c(c1)C1Oc3ccccc3CC1CO2 (stereo unspecified) ?
Output line: 81.9 µM

Input line: Try the compound "O=C(c1cccs1)N1CCCN(C(=O)c2cccs2)C1=S"
Output line: > 100 µM

Input line: Please give the result for "COc1cc(OC)c(OC)cc1/C=C/c1cnnc2ccccc12" too.
Output line: > 10 µM

Input line: Try "CCOC(=O)CCN1C(=O)C(=O)N(c2ccc(OC)cc2)C1=S" next.
Output line: > 100 µM

Input line: Same for "O=C(CI)Nc1ccc(O)c2ccccc12"
Output line: 14.8 µM

Input line: Field entry: "CCCCCCCC(=O)SCC/C=C/[C@@H]1CC(=O)NCc2nc(cs2)C2=N[C@@](C)(CS2)C(=O)N[C@@H](C(C)C)C(=O)N1"
Output line: 0.14 µM

Input line: Subsequent entry: "c1ccc(Nc2nn3c(CCCCCCCCc4nnc5sc(Nc6ccccc6)nn45)nnc3s2)cc1"
Output line: > 100 µM

Input line: Now the compound CC(C(=O)c1ccccc1)C1(O)C(=O)Nc2ccc(Cl)cc21 (stereo unspecified)
Output line: > 100 µM

Input line: Item: O=C(c1cccnc1)N1N=C(c2ccccc2)CC1(O)c1cc(F)c(Cl)cc1Cl (stereo unspecified)
Output line: > 100 µM

Input line: Follow-up entry: "Cc1cc2c(c(S(=O)(=O)c3ccccc3[N+](=O)[O-])c1)NCCC2"
Output line: > 100 µM

Input line: For CCCCCCCC/C=C1\CCC(CN2CCOCC2)C1=O (stereo unspecified) then?
Output line: 34.3 µM

Input line: Here is the next compound: "CCOC(=O)C(=CNC(=S)N=Nc1c(O)[nH]c2ccccc12)C(=O)OCC"
Output line: > 100 µM

Input line: Then "COc1cc(NS(C)(=O)=O)ccc1NCc1c2ccccc2nc2ccccc12" ?
Output line: > 100 µM

Input line: "Cc1nc2ccccn2c1NC(=O)NNC(=S)Nc1ccc(F)cc1" ?
Output line: > 100 µM

Input line: Then this compound: COc1ccc2c(c1OC)C(C(Cl)(Cl)Cl)N1CCc3cc4c(cc3C1=C2)OCO4 (stereo unspecified)
Output line: 85.9 µM

Input line: C=CC(C)C1(CCCOCc2ccccc2)C(=S)N2CCC3(CC24CCCC14)OCCO3 (stereo unspecified) , same question.
Output line: > 100 µM

Input line: Try this compound next: "NCCCNOCCCN"
Output line: > 100 µM

Input line: Record: "CCN(CC)CCn1c(=O)c2c(C)c3oc4ccccc4oc3c(C)c2c1=O"
Output line: > 100 µM

Input line: Now the same for "COC1=CC(c2ccc[nH]2)=N/C1=C\c1[nH]c(C)c(CC(=O)OCc2ccccc2)c1C"
Output line: 2.77 µM

Input line: Same read-out for "CC(C)C(=O)c1c(C(F)(F)F)n([O-])c2cc(F)c(F)cc2[n+]1=O" ?
Output line: 2.85 µM

Input line: Also need CCOC(=O)[C@@]1(C)CC(O)C(=O)N1C (stereo partly specified) , thanks.
Output line: > 100 µM

Input line: // repeat for COc1ccc2c(c1)NC1(O)c3ccccc3C(=O)C21O (stereo unspecified) and report
Output line: > 100 µM
